metric: melting point

> print(dat)
                                   molecule         metric  reported.measurement
1  Cc1cc2c(CC(=O)O)csc2cc1OCc1ccccc1OCc1ccc(C(F)(F)F)cc1  melting point         157 to 158 °C

Prompt: Consider the molecule O=C(O)COc1ccc(SCc2ccc(OC3CCc4cc(Cl)ccc43)cc2)c2c1CCC2 (centres unmarked) and give its measured melting point.
Completion: 169 to 170 °C

Prompt: Consider the molecule O=C(O)Cc1coc2cc(OCc3cc(-c4ccc(Cl)cc4)on3)ccc12 and give its measured melting point.
Completion: 193 to 194 °C

Prompt: Consider the molecule O=C(O)Cc1coc2cc(OCc3ccc(OCc4ccc(C(F)(F)F)cc4)cc3)ccc12 and give its measured melting point.
Completion: 161 to 163 °C

Prompt: Consider the molecule O=C(O)Cc1csc2c(OCc3cc(-c4ccc(Cl)cc4)on3)cccc12 and give its measured melting point.
Completion: 229 to 230 °C (dec.)
